System: RXF 631
Assay: NCI tumour cell line growth inhibition, 48 h
Calls of active or inactive are those of the source. Cut-off read from the data, not from the text of the source: active = GI50 up to about 1.1 µM and inactive = higher.
MEASURED METRIC: GI50

> print(dat)
                                   molecule  experimental.system  measured.metric          meas.value
1  COc1cc(C2C(C(=O)Nc3ccc([N+](=O)[O-])cc3)=C(C)NC(C)=C2C(=O)Nc2ccc([N+](=O)[O-])cc2)ccc1O              RXF 631             GI50  32.5 µM (inactive)

Q: I'd like to know its GI50. The molecule in question is "O=C(/C=C1/NC(=O)CS1)Nc1ccccc1"
Ans: > 100 µM (inactive)

Q: Now this one: "Cc1ccccc1NC(=O)Cc1nc2ccccc2s1"
Ans: 16 µM (inactive)

Q: Now this one: "CC(=O)N1C/C(=C\c2ccc(N(C)C)cc2)C(=O)/C(=C/c2ccc(N(C)C)cc2)C1"
Ans: 55.2 µM (inactive)

Q: Now this one: "NC(=S)N/N=C(\C(=O)Nc1cccc([N+](=O)[O-])c1)c1nc2ccc([N+](=O)[O-])cc2nc1O"
Ans: > 100 µM (inactive)

Q: Now this one: "COc1cc2c(OC)cc1CSCc1sc(C)c(c1Br)CSC2"
Ans: > 100 µM (inactive)

Q: Now this one: "CC(=O)C1=C(C)Cn2c(=O)c3ccccc3c(=O)n2C1"
Ans: > 100 µM (inactive)

Q: Now this one: "Brc1ccc(/C=N/C23CC4CC(CC(C4)C2)C3)cc1"
Ans: > 100 µM (inactive)

###

Test system: SF-268
Assay: NCI tumour cell line growth inhibition, 48 h
Calls of active or inactive are those of the source. Rule as the data show it: active = GI50 up to about 1.1 µM and inactive = higher.
MEASURED METRIC: GI50

> print(dat)
                                   molecule            meas.value
1         CCOC(=O)N1CCN(c2c(N)nc(C)nc2O)CC1   > 100 µM (inactive)
2         COc1ccccc1NC(=S)N/N=C/c1cccc(C)n1    6.97 µM (inactive)
3  O=C1NN=C(c2ccc(Cl)cc2)CC1C1C(=O)N(c2ccccc2)N=C1c1ccccc1 (stereo not given)    48.2 µM (inactive)
4  CCC1(c2ccccc2)C(=O)N=C(c2ccccc2)N1CCc1ccccc1 (stereo not given)   > 100 µM (inactive)
5  CC(C)NC(=O)OCc1c(COC(=O)NC(C)C)c(-c2cc[n+](COC(=O)C(C)C)cc2)n2c1CCC2  > 74.8 µM (inactive)

Q: Report GI50 for "Cc1ccc(C)c(N2C(=O)C(=O)C(c3nc4ccccc4s3)C(=O)C2=O)c1" tested on SF-268.
Ans: > 100 µM (inactive)

Q: Now this one: COc1cc(C2c3cc4c(cc3[C@@H](NCCN3CCOCC3)C3COC(=O)[C@H]23)OCO4)cc(OC)c1O (stereo not given in full)
Ans: 1.56 µM (inactive)

Q: Now this one: COc1ccc(-n2c(C)nc3ccc(NC4OCC(OC(C)=O)C(OC(C)=O)C4OC(C)=O)cc3c2=O)cc1 (stereo not given)
Ans: > 100 µM (inactive)

Q: Now this one: CC1=NN(c2cccc(Cl)c2)C2(C1)SCC(=O)N2c1nc2ccccc2s1 (stereo not given)
Ans: 31.2 µM (inactive)
